meta.source: paper PMC4501059

method.summary: Phase 1 study in healthy volunteers, oral suspension
Format: in vivo, human
test.settings: both sexes, human, plasma, oral, 3000 mg, fasting
measured.attribute: Cmax (ng/mL)
Answers are plain numbers, in ng/mL.

# compound C[C@@H]1CN2c3c(cc4c(N5C(=O)OC[C@@H]5C)noc4c3F)CC3(C(=O)NC(=O)NC3=O)[C@H]2[C@H](C)O1 ; its Cmax = 22900

* * *

Give pIC50 for every item shown.
tgt: Iks/Kv7.1 (Homo sapiens, UniProt P51787)
method.summary: In vitro ion channel function
test.settings: Iks/Kv7.1 IC50, Slowly activating K^+ delayed rectifier
pIC50: −log10 of the molar value.

Solved entries (count: 3):
C[C@@H]1CN2c3c(cc4c(C(=O)NCC(F)(F)F)noc4c3F)CC3(C(=O)NC(=O)NC3=O)[C@H]2[C@H](C)O1 [Compound 7]; < 4.00
C[C@@H]1CN2c3c(cc4c(N5C(=O)OC[C@@H]5C)noc4c3F)CC3(C(=O)NC(=O)NC3=O)[C@H]2[C@H](C)O1 [Compound 1]; < 3.50
Cc1noc2c(F)c3c(cc12)CC1(C(=O)NC(=O)NC1=O)[C@H]1[C@H](C)O[C@H](C)CN31 [Compound 5]; < 4.00

Could you tell me pIC50 for each of these compounds? They are listed below.
1. C[C@@H]1CN2c3c(cc4c(N5C(=O)OC[C@@H]5C)noc4c3F)CC3(C(=O)NC(=O)NC3=O)[C@H]2[C@H](C)O1 [ETX0914]
2. C[C@@H]1CN2c3c(cc4c(-n5cncn5)noc4c3F)CC3(C(=O)NC(=O)NC3=O)[C@H]2[C@H](C)O1 [Compound 6]

Result:
1: < 3.48; 2: < 3.48
